// Ki lookup, one value per entry
Target: Fatty acid-binding protein, liver [T94A] (Homo sapiens, UniProt P07148, T94A)
Test: ANS Fluorescence Displacement Assay

>  <COMPOUND>
CC(C)(Oc1ccc(C(=O)c2ccc(Cl)cc2)cc1)C(=O)O

>  <UNIT>
nM

>  <Ki>
310

$$$$
>  <COMPOUND>
CC(C)CCC[C@H](C)CCC[C@H](C)CCC[C@@H](C)CC(=O)O

>  <UNIT>
nM

>  <Ki>
38

$$$$
>  <COMPOUND>
CC(C)OC(=O)C(C)(C)Oc1ccc(C(=O)c2ccc(Cl)cc2)cc1 [Finofibrate]

>  <UNIT>
nM

>  <Ki>
15

$$$$

###

Target: Fatty acid-binding protein, liver (Homo sapiens)
Sequence (P07148 whole entry): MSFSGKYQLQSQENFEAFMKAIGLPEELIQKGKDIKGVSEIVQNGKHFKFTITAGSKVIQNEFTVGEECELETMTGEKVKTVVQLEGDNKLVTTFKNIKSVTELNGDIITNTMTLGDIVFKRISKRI

>  <MOLECULE>
CC(C)(Oc1ccc(C(=O)c2ccc(Cl)cc2)cc1)C(=O)O

>  <UNIT>
µM

>  <Ki>
0.25

$$$$
>  <MOLECULE>
CC(C)OC(=O)C(C)(C)Oc1ccc(C(=O)c2ccc(Cl)cc2)cc1 [Finofibrate]

>  <UNIT>
µM

>  <Ki>
0.015

$$$$
